molecular target: human recombinant 5-HT2A receptor (Homo sapiens (Human), UniProt P28223); assay: 5-HT2A receptor binding inhibition test ([3H]-Ketanserin); settings: Jump-In HEK cell membrane, 25° C. 1.5 hours, read-out: h-5-HT2A Ki
Sequence (P28223 whole entry): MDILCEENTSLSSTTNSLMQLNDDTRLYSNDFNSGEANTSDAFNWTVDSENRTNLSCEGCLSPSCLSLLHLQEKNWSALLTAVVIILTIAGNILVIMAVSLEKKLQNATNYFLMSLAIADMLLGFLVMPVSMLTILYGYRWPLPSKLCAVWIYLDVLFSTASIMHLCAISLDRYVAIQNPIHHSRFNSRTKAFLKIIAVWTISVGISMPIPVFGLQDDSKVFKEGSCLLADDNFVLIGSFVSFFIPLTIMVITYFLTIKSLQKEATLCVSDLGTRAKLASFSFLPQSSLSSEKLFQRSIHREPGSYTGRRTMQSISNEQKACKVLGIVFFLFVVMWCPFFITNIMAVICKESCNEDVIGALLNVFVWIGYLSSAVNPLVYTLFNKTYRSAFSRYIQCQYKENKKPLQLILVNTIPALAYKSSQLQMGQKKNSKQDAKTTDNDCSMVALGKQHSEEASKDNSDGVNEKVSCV
test.readout: Ki

# compound.smiles, test.readout, val
rows = [
    ("CN1CCC2(CC1)NC(N(Cc1cnn(C)n1)Cc1ccc(OCC(F)(F)C(F)(F)F)cc1F)=NO2", "Ki", "< 10 nM"),
    ("CCCOc1ccc(CN(Cc2coc(C)n2)C2=NOC3(CCN(C)CC3)N2)c(Cl)c1", "Ki", "< 10 nM"),
    ("Cc1nc(CN(Cc2ccc(OCC(C)C)c(F)c2)C2=NOC3(CCN(C)CC3)N2)co1", "Ki", "< 10 nM"),
    ("CCOCc1ccc(CN(Cc2coc(C)n2)C2=NOC3(CCN(C)CC3)N2)cc1", "Ki", "10 to 100 nM"),
]

* * *

target: human recombinant 5-HT2C receptor (Homo sapiens (Human), UniProt P28335); test: 5-HT2C receptor binding inhibition test ([3H]-Mesulergine); conditions: Jump-In HEK cell membrane, 37° C. 2 hours, read-out: human serotonin 5-HT2C receptor binding activity Ki
Sequence (P28335 33-458): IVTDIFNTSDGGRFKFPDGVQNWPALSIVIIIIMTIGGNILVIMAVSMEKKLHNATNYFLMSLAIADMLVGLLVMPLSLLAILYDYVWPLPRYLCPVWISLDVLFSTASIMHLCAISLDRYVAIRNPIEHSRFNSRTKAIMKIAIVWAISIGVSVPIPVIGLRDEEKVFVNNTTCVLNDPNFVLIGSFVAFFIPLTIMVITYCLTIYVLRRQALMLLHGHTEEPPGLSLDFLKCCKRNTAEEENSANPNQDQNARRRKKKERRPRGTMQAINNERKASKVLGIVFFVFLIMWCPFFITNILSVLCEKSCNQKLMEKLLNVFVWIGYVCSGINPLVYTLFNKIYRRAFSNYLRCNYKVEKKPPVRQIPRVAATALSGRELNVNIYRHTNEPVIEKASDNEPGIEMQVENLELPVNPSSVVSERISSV
Class assignment keyed on Ki, ranges LOW (below 0.6 nM), MID (0.6 nM to below 2 nM), HIGH (2 nM or more)

# compound, system.tested, label
records = [
    ("Cc1nc(CN(Cc2cc3ccccc3o2)C2=NOC3(CCN(C)CC3)N2)co1 [Compound I-099]", "human recombinant 5-HT2C receptor (Homo sapiens (Human), UniProt P28335)", "HIGH"),
    ("Cc1nc(CN(Cc2ccc(OCC(C)C)c(F)c2)C2=NOC3(CCNCC3)N2)co1 [Compound I-130]", "human recombinant 5-HT2C receptor (Homo sapiens (Human), UniProt P28335)", "LOW"),
    ("Cc1nc(CN(Cc2ccc(OCC(C)C)cc2F)C2=NOC3(CCN(C)CC3)N2)co1 [Compound I-128]", "human recombinant 5-HT2C receptor (Homo sapiens (Human), UniProt P28335)", "LOW"),
    ("CCCCOc1ccc(CN(Cc2coc(C)n2)C2=NOC3(CCN(C)CC3)N2)cc1 [Compound I-080]", "human recombinant 5-HT2C receptor (Homo sapiens (Human), UniProt P28335)", "LOW"),
    ("CCCCOc1ccc(CN(Cc2coc(C)n2)C2=NOC3(CCN(C)CC3)N2)cc1F [Compound I-115]", "human recombinant 5-HT2C receptor (Homo sapiens (Human), UniProt P28335)", "LOW"),
    ("Cc1nc(CN(Cc2ccc(OCC(F)(F)C(F)(F)F)cc2F)C2=NOC3(CCN(C)CC3)N2)co1 [Compound I-104]", "human recombinant 5-HT2C receptor (Homo sapiens (Human), UniProt P28335)", "LOW"),
    ("CC(C)COc1ccc(CN(Cc2coc(CF)n2)C2=NOC3(CCN(C)CC3)N2)cc1 [Compound I-067]", "human recombinant 5-HT2C receptor (Homo sapiens (Human), UniProt P28335)", "MID"),
    ("Cc1nc(CN(Cc2ccc(OCC(C)C)cc2)C2=NC(=O)C3(CCN(C)CC3)N2)cs1 [Compound I-057]", "human recombinant 5-HT2C receptor (Homo sapiens (Human), UniProt P28335)", "HIGH"),
    ("CCCCOc1ccc(CN(Cc2coc(C)n2)C2=NOC3(CCN(C)CC3)N2)c(F)c1 [Compound I-114]", "human recombinant 5-HT2C receptor (Homo sapiens (Human), UniProt P28335)", "LOW"),
    ("CCCc1ccc(CN(Cc2coc(C)n2)C2=NOC3(CCN(C)CC3)N2)cc1 [Compound I-087]", "human recombinant 5-HT2C receptor (Homo sapiens (Human), UniProt P28335)", "MID"),
    ("CC(C)COc1ccc(CN=C2NC(=O)CC3(CCN(C)CC3)N2Cc2ccc(F)cc2)cc1 [Compound I-005]", "human recombinant 5-HT2C receptor (Homo sapiens (Human), UniProt P28335)", "HIGH"),
    ("CC(C)COc1ccc(CN(Cc2ccn(C)n2)C2=NC(=O)C3(CCN(C)CC3)N2)cc1 [Compound I-033]", "human recombinant 5-HT2C receptor (Homo sapiens (Human), UniProt P28335)", "HIGH"),
    ("Cc1nc(CN(Cc2ccc(CCC(F)(F)F)cc2)C2=NOC3(CCN(C)CC3)N2)co1 [Compound I-125]", "human recombinant 5-HT2C receptor (Homo sapiens (Human), UniProt P28335)", "MID"),
    ("CCCCOc1ccc(CN(Cc2cnn(C)n2)C2=NOC3(CCN(C)CC3)N2)cc1 [Compound I-113]", "human recombinant 5-HT2C receptor (Homo sapiens (Human), UniProt P28335)", "MID"),
    ("Cc1nc(CN(Cc2nc3cc(Cl)ccc3o2)C2=NOC3(CCN(C)CC3)N2)co1 [Compound I-089]", "human recombinant 5-HT2C receptor (Homo sapiens (Human), UniProt P28335)", "HIGH"),
    ("CC(C)COc1ccc(C[C@H]2C(=O)NC3(CCN(C)CC3)N2Cc2ccc(F)cc2)cc1 [Compound I-002]", "human recombinant 5-HT2C receptor (Homo sapiens (Human), UniProt P28335)", "HIGH"),
    ("CC(C)COc1ccc(CC2=NOC3(CCNCC3)N2Cc2ccc(F)cc2O)cc1 [Compound I-003]", "human recombinant 5-HT2C receptor (Homo sapiens (Human), UniProt P28335)", "HIGH"),
    ("CC(C)COc1ccc(CN(Cc2coc(C3CC3)n2)C2=NOC3(CCN(C)CC3)N2)cc1 [Compound I-049]", "human recombinant 5-HT2C receptor (Homo sapiens (Human), UniProt P28335)", "LOW"),
    ("CCCOc1ccc(CC2=NOC3(CCN(C)CC34CC4)N2Cc2ccn(C)n2)cc1 (stereo not shown) [Compound I-027]", "human recombinant 5-HT2C receptor (Homo sapiens (Human), UniProt P28335)", "HIGH"),
    ("CCCCOc1ccc(CN(Cc2coc(CF)n2)C2=NOC3(CCN(C)CC3)N2)cc1 [Compound I-105]", "human recombinant 5-HT2C receptor (Homo sapiens (Human), UniProt P28335)", "MID"),
    ("CC(C)COc1ccc(CC2=NOC3(CCN(C)CC3)N2Cc2ccc(F)cc2)cc1 [Compound I-001]", "human recombinant 5-HT2C receptor (Homo sapiens (Human), UniProt P28335)", "HIGH"),
]

* * *

Items are presented alongside their recorded Ki.
biological target: human recombinant 5-HT2A receptor (Homo sapiens (Human), UniProt P28223); assay: 5-HT2A receptor binding inhibition test ([3H]-Ketanserin); conditions: Jump-In HEK cell membrane, 25° C. 1.5 hours, read-out: human serotonin 5-HT2A receptor binding activity Ki

# molecule, system.tested, Ki
rows = [
    ("CC(C)COc1ccc(C[C@H]2C(=O)NC3(CCN(C)CC3)N2Cc2ccc(F)cc2)cc1", "human recombinant 5-HT2A receptor (Homo sapiens (Human), UniProt P28223)", "11.1 nM"),
    ("CCCOc1ccc(CC2=NOC3(CCN(C)CC34CC4)N2Cc2ccn(C)n2)cc1 (stereo not drawn)", "human recombinant 5-HT2A receptor (Homo sapiens (Human), UniProt P28223)", "1.89 nM"),
    ("CC(C)COc1ccc(CC2=NOC3(CCNCC3)N2Cc2ccc(F)cc2O)cc1", "human recombinant 5-HT2A receptor (Homo sapiens (Human), UniProt P28223)", "19.8 nM"),
    ("Cc1nc(CN(Cc2ccc(OCC(C)C)c(F)c2)C2=NOC3(CCNCC3)N2)co1", "human recombinant 5-HT2A receptor (Homo sapiens (Human), UniProt P28223)", "1.29 nM"),
    ("CC(C)COc1ccc(CN=C2NC(=O)CC3(CCN(C)CC3)N2Cc2ccc(F)cc2)cc1", "human recombinant 5-HT2A receptor (Homo sapiens (Human), UniProt P28223)", "85.3 nM"),
    ("CCCCOc1ccc(CN(Cc2coc(C)n2)C2=NOC3(CCN(C)CC3)N2)cc1", "human recombinant 5-HT2A receptor (Homo sapiens (Human), UniProt P28223)", "0.823 nM"),
]

* * *

molecular target: human recombinant 5-HT2A receptor (Homo sapiens (Human), UniProt P28223); experiment: 5-HT2A receptor binding inhibition test ([3H]-Ketanserin); conditions: Jump-In HEK cell membrane, 25° C. 1.5 hours, read-out: h-5-HT2A Ki
test.readout: Ki

# compound, system.tested, val
measured = [
    ("Cc1nc(CN(Cc2ccc3ccccc3c2)C2=NOC3(CCN(C)CC3)N2)co1 [Compound I-097]", "human recombinant 5-HT2A receptor (Homo sapiens (Human), UniProt P28223)", "< 10 nM"),
    ("CC(C)COc1ccc(CN(Cc2coc(C(F)F)n2)C2=NOC3(CCN(C)CC3)N2)cc1 [Compound I-050]", "human recombinant 5-HT2A receptor (Homo sapiens (Human), UniProt P28223)", "< 10 nM"),
    ("Cc1nc(CN(Cc2cc3ccccc3s2)C2=NOC3(CCN(C)CC3)N2)co1 [Compound I-123]", "human recombinant 5-HT2A receptor (Homo sapiens (Human), UniProt P28223)", "< 10 nM"),
    ("COc1ccc(CN(Cc2coc(C)n2)C2=NOC3(CCN(C)CC3)N2)cn1 [Compound I-120]", "human recombinant 5-HT2A receptor (Homo sapiens (Human), UniProt P28223)", "10 to 100 nM"),
    ("CCc1nc(CN(Cc2ccc(OCC(C)C)cc2)C2=NOC3(CCN(C)CC3)N2)co1 [Compound I-068]", "human recombinant 5-HT2A receptor (Homo sapiens (Human), UniProt P28223)", "< 10 nM"),
    ("CCCc1ccc(CN(Cc2coc(C)n2)C2=NOC3(CCN(C)CC3)N2)cc1F [Compound I-110]", "human recombinant 5-HT2A receptor (Homo sapiens (Human), UniProt P28223)", "< 10 nM"),
    ("Cc1coc(CN(Cc2ccc(OCC(C)C)cc2)C2=NOC3(CCN(C)CC3)N2)n1 [Compound I-054]", "human recombinant 5-HT2A receptor (Homo sapiens (Human), UniProt P28223)", "< 10 nM"),
    ("CCCc1ccc(CN(Cc2coc(C)n2)C2=NOC3(CCN(C)CC3)N2)c(F)c1 [Compound I-109]", "human recombinant 5-HT2A receptor (Homo sapiens (Human), UniProt P28223)", "< 10 nM"),
]

Origin of measurements: patent US20250026765A1
